Read-out: Collagen I, COL1A1 (gene 1277)
Experiment: BSK_MyoF_CollagenI: BioMAP Diversity Plus: MyoF Assay for Collagen I Biomarker Activity (AID 2284238)
Details: primary human lung fibroblasts
Method: BSK_MyoF is a cell-based, multiplexed-readout assay that uses lung fibroblasts, […], with measurements taken at 24 hours after chemical dosing in a microplate: 96-well plate.BSK_MyoF_CollagenI is an assay component measured in the BSK_MyoF assay. […] The levels of cell surface (or secreted, indicated by the prefix "s") biomarker endpoints were measured by ELISA. […] Plates were read after 6 h.
Active and inactive are the calls of the source. Rule for the calls: active = hit-call score of the fitted dose curve at least 0.9, where 1 is the maximum; inactive = score below 0.9.
Outcome codes: active, inactive

{"substance smiles": "CC1(C)Cc2cccc(O)c2O1", "category label": "inactive"}
{"substance smiles": "CCOC(=O)/C=C(C)/C=C/C[C@@H](C)CCCC(C)C", "category label": "active"}
{"substance smiles": "O=Cc1cccc(Oc2ccccc2)c1", "category label": "inactive"}
{"substance smiles": "COc1cc(OC)nc(NC(=O)NS(=O)(=O)c2ncccc2C(=O)N(C)C)n1", "category label": "inactive"}
{"substance smiles": "C(=NC1CCCCC1)=NC1CCCCC1", "category label": "active"}
{"substance smiles": "CCNc1nc(NC(C)(C)C)nc(SC)n1", "category label": "inactive"}
{"substance smiles": "COP(=S)(OC)Oc1cc(Cl)c(Cl)cc1Cl", "category label": "inactive"}
{"substance smiles": "Oc1c(I)cc(I)cc1I", "category label": "active"}
{"substance smiles": "Nc1ncc([N+](=O)[O-])s1", "category label": "inactive"}
{"substance smiles": "Nc1ccc(-c2ccc(N)c(Cl)c2)cc1Cl", "category label": "active"}
{"substance smiles": "Nc1cccc2ccccc12", "category label": "inactive"}
{"substance smiles": "COC[C@H](C)N(C(=O)CCl)c1c(C)csc1C", "category label": "inactive"}
{"substance smiles": "OCc1ccco1", "category label": "inactive"}
{"substance smiles": "O=C(O)C(F)(F)C(F)(F)C(F)(F)C(F)(F)C(F)(F)C(F)(F)F", "category label": "inactive"}
{"substance smiles": "O=C(O)CCC(F)(C(F)(F)F)C(F)(F)F", "category label": "inactive"}

Every entry's value here was drawn from PubChem BioAssay (EPA / NIEHS).
